biological target: human TRPM8 (Homo sapiens); construct: expressed in transfected cells; host or cells: CHO (p658 mammalian expression vector); test: In vitro human TRPM8 fluorescence calcium flux assay (recombinant CHO cells, Fluo4-AM, FDSS6000); format: cell-based; conditions: recombinant CHO cells expressing human TRPM8; menthol-related EC50, normalized to 100 μM menthol
Sequence (Q7Z2W7 whole entry): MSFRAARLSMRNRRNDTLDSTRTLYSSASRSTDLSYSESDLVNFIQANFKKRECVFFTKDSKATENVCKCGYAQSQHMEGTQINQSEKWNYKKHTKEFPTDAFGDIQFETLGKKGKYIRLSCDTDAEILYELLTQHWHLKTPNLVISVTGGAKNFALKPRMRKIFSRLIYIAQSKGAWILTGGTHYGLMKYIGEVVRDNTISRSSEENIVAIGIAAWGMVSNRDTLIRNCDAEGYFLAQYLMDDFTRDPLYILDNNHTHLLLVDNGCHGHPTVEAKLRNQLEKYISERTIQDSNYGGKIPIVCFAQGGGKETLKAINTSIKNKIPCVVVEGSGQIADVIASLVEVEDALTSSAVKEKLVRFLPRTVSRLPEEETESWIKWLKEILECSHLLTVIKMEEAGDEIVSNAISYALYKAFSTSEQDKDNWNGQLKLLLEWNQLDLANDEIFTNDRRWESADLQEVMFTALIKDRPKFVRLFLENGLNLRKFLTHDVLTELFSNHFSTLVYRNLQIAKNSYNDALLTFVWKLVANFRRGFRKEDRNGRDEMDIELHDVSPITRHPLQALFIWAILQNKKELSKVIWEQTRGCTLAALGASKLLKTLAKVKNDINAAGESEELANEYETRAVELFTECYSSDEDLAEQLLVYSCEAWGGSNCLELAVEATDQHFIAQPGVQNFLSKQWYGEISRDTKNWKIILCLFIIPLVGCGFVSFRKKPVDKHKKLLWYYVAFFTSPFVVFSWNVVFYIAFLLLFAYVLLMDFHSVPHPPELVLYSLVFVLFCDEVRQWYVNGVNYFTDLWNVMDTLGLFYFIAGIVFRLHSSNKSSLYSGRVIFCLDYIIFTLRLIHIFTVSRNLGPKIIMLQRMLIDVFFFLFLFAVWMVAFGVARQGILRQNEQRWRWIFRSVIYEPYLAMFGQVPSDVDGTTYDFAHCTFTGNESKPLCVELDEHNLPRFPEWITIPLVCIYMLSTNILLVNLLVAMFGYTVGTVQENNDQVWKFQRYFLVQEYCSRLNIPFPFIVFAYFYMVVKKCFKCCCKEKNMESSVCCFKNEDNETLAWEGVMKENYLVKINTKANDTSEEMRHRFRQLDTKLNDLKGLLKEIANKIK
The threshold is 3 nM. Values of EC50 beneath it are tagged MET; values meeting or exceeding it are tagged NOT MET.

{"Compound": "CC(C)[C@@H]1CC[C@@H](C)C[C@@]1(O)C(=O)NCC(=O)Oc1cc(O)cc(O)c1 [Example 76]", "Label": "NOT MET"}
{"Compound": "CC(C)[C@@H]1CC[C@@H](C)C[C@@]1(O)C(=O)NCC(O)(c1ccccc1)C(F)(F)F (single isomer, unassigned) [Example 83]", "Label": "NOT MET"}
{"Compound": "CC(C)[C@@H]1CC[C@@H](C)C[C@@]1(O)C(=O)NCCc1ccccc1CCO [Example 52]", "Label": "NOT MET"}
{"Compound": "CC(C)[C@@H]1CC[C@@H](C)C[C@@]1(O)C(=O)NC[C@@H](NC(=O)[C@H](C)N)c1ccccc1 [Example 63]", "Label": "MET"}
{"Compound": "CC(C)[C@@H]1CC[C@@H](C)C[C@@]1(O)C(=O)NCC1(O)CCc2c(Cl)cccc21 (stereo partly shown) [Example 144]", "Label": "NOT MET"}
{"Compound": "CC(C)[C@@H]1CC[C@@H](C)C[C@@]1(O)C(=O)NCCc1cccnc1 [Example 124]", "Label": "NOT MET"}
{"Compound": "CC(C)[C@@H]1CC[C@@H](C)C[C@@]1(O)C(=O)NCCc1ccccc1OCC(N)=O [Example 81]", "Label": "NOT MET"}
{"Compound": "CC(C)[C@@H]1CC[C@@H](C)C[C@@]1(O)C(=O)NCC(C)(O)c1ccccc1 (stereo partly shown) [Example 164]", "Label": "NOT MET"}
{"Compound": "CC(C)[C@@H]1CC[C@@H](C)C[C@@]1(O)C(=O)NCC(=O)c1ccccc1 [Example 2]", "Label": "MET"}
{"Compound": "CC(C)[C@@H]1CC[C@@H](C)C[C@@]1(O)C(=O)NCC(=O)c1ccccc1O [Example 38]", "Label": "MET"}
{"Compound": "CC(C)[C@@H]1CC[C@@H](C)C[C@@]1(O)C(=O)NCC(=O)c1ccccc1Cl [Example 140]", "Label": "NOT MET"}
{"Compound": "CC(C)[C@@H]1CC[C@@H](C)C[C@@]1(O)C(=O)NCC(F)c1ccccc1 (stereo partly shown) [Example 5]", "Label": "MET"}
{"Compound": "CC(C)[C@@H]1CC[C@@H](C)C[C@@]1(O)C(=O)NCC(=O)c1cccc(O)c1 [Example 39]", "Label": "MET"}
{"Compound": "CC(C)[C@@H]1CC[C@@H](C)C[C@@]1(O)C(=O)NCCc1ccccc1 [Example 51]", "Label": "NOT MET"}
{"Compound": "CC(C)[C@@H]1CC[C@@H](C)C[C@@]1(O)C(=O)NC[C@@H](NC(=O)[C@@H](C)N)c1ccccc1 [Example 62]", "Label": "MET"}

----------
Reported pEC50 values for a set of compounds
biological target: pig TRPM8 (Sus scrofa, UniProt F1SM15); construct: expressed in transfected cells; host or cells: CHO (pcDNA5/FRT/TO vector; hygromycin B and blasticidin selection); test: In vitro pig TRPM8 automated patch-clamp assay (SyncroPatch 384PE, CHO cells); format: cell-based; conditions: CHO cells expressing pig TRPM8, 28° C.
Sequence (F1SM15 1-1104): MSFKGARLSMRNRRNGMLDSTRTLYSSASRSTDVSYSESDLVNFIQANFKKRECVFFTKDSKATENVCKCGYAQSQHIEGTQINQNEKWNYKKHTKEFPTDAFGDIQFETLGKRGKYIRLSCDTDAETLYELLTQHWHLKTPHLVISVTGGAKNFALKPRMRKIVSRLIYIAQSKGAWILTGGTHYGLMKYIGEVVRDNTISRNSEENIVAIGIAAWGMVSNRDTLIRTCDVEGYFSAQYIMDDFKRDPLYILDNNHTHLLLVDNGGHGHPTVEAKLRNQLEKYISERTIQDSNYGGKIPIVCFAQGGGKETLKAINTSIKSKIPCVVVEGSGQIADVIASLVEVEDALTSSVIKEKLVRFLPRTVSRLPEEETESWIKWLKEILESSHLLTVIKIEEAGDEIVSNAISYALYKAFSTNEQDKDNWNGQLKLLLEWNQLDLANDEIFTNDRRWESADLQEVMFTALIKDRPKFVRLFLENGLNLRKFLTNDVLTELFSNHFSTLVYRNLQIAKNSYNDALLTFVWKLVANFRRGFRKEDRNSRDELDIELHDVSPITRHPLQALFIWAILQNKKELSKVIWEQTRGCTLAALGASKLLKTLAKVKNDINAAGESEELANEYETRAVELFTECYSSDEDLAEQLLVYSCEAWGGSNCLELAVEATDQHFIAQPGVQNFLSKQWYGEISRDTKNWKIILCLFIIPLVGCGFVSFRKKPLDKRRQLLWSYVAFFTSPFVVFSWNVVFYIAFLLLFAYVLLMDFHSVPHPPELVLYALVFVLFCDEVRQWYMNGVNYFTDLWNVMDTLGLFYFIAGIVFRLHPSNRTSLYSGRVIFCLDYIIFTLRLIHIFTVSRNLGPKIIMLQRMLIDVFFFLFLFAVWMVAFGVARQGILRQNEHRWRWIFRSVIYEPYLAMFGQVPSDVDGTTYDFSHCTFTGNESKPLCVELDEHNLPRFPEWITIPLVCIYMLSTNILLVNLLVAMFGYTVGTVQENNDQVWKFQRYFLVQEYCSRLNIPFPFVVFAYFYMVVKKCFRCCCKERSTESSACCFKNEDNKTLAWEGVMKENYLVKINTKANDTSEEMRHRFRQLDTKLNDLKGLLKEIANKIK
pEC50: −log10 of the molar value.

{"Compound": "COC(=O)COc1ccccc1C(O)CNC(=O)[C@]1(O)C[C@H](C)CC[C@H]1C(C)C (some centres unmarked)", "Measured On": "pig TRPM8 (Sus scrofa, UniProt F1SM15)", "pEC50": 5.42}
{"Compound": "COc1ccccc1C(F)(F)CNC(=O)[C@]1(O)C[C@H](C)CC[C@H]1C(C)C", "Measured On": "pig TRPM8 (Sus scrofa, UniProt F1SM15)", "pEC50": 5.68}
{"Compound": "CC(C)[C@@H]1CC[C@@H](C)C[C@@]1(O)C(=O)NCC1(O)CCOc2ccccc21 (some centres unmarked)", "Measured On": "pig TRPM8 (Sus scrofa, UniProt F1SM15)", "pEC50": 5.96}
{"Compound": "COC(=O)[C@@H](N)COc1cccc(CCNC(=O)[C@]2(O)C[C@H](C)CC[C@H]2C(C)C)c1", "Measured On": "pig TRPM8 (Sus scrofa, UniProt F1SM15)", "pEC50": 5.40}
{"Compound": "CC(C)[C@@H]1CC[C@@H](C)C[C@@]1(O)C(=O)NC[C@@H](O)c1cccc(O)c1", "Measured On": "pig TRPM8 (Sus scrofa, UniProt F1SM15)", "pEC50": 6.04}
{"Compound": "COC(=O)c1cccc(C(O)CNC(=O)[C@]2(O)C[C@H](C)CC[C@H]2C(C)C)c1 (some centres unmarked)", "Measured On": "pig TRPM8 (Sus scrofa, UniProt F1SM15)", "pEC50": 5.49}
{"Compound": "CC(C)[C@@H]1CC[C@@H](C)C[C@@]1(O)C(=O)NC[C@@H](OCCO)c1ccccc1", "Measured On": "pig TRPM8 (Sus scrofa, UniProt F1SM15)", "pEC50": 5.21}
{"Compound": "CC(C)[C@@H]1CC[C@@H](C)C[C@@]1(O)C(=O)NCC(O)c1ccc(F)cc1 (some centres unmarked)", "Measured On": "pig TRPM8 (Sus scrofa, UniProt F1SM15)", "pEC50": 6.03}

----------
molecular target: pig TRPM8 (Sus scrofa); construct: expressed in transfected cells; host or cells: CHO (pcDNA5/FRT/TO vector; hygromycin B and blasticidin selection); experiment: In vitro pig TRPM8 fluorescence calcium flux assay (recombinant CHO cells, Fluo4-AM, FDSS6000); format: cell-based; details: recombinant CHO cells expressing pig TRPM8; menthol-related EC50, normalized to 100 μM menthol
Reported EC50 values for a set of compounds

{"Compound": "CC(C)[C@@H]1CC[C@@H](C)C[C@@]1(O)C(=O)NCC1(O)CCc2ccccc21 (single isomer, unassigned) [Example 176]", "Unit Spec": "nM", "EC50": 1.3}
{"Compound": "COc1cccc(C(F)(F)CNC(=O)[C@]2(O)C[C@H](C)CC[C@H]2C(C)C)c1 [Example 188]", "Unit Spec": "nM", "EC50": 24.1}
{"Compound": "CC(C)[C@@H]1CC[C@@H](C)C[C@@]1(O)C(=O)NCC(NC(=O)[C@H](C)N)c1ccccc1 (single isomer, unassigned) [Example 181]", "Unit Spec": "nM", "EC50": 61.4}
{"Compound": "CC(C)[C@@H]1CC[C@@H](C)C[C@@]1(O)C(=O)NCC1OCCc2ccccc21 (single isomer, unassigned) [Example 97]", "Unit Spec": "nM", "EC50": 29.2}
{"Compound": "CCOC(=O)c1cccc(CCNC(=O)[C@]2(O)C[C@H](C)CC[C@H]2C(C)C)c1 [Example 28]", "Unit Spec": "nM", "EC50": 311}
{"Compound": "CC(C)[C@@H]1CC[C@@H](C)C[C@@]1(O)C(=O)NC[C@@H](O)c1cccc(O)c1 [Example 42]", "Unit Spec": "nM", "EC50": 3.8}
{"Compound": "COC(=O)Cc1cccc(CCNC(=O)[C@]2(O)C[C@H](C)CC[C@H]2C(C)C)c1 [Example 74]", "Unit Spec": "nM", "EC50": 9}
{"Compound": "COc1ccc(NC(=O)[C@]2(O)C[C@H](C)CC[C@H]2C(C)C)cc1 [Example 174]", "Unit Spec": "nM", "EC50": 33.4}
{"Compound": "CC(C)[C@@H]1CC[C@@H](C)C[C@@]1(O)C(=O)NC[C@@H](F)c1ccccc1 [Example 180]", "Unit Spec": "nM", "EC50": 1.2}
{"Compound": "Cc1ccc(CCNC(=O)[C@]2(O)C[C@H](C)CC[C@H]2C(C)C)cc1 [Example 60]", "Unit Spec": "nM", "EC50": 7.1}
{"Compound": "COC(=O)COc1cccc(C(O)CNC(=O)[C@]2(O)C[C@H](C)CC[C@H]2C(C)C)c1 (stereo partly drawn) [Example 33]", "Unit Spec": "nM", "EC50": 38}
{"Compound": "CC(C)[C@@H]1CC[C@@H](C)C[C@@]1(O)C(=O)NC1CCC(F)(F)CC1 [Example 147]", "Unit Spec": "nM", "EC50": 901}
{"Compound": "CC(C)[C@@H]1CC[C@@H](C)C[C@@]1(O)C(=O)NCCc1cc(O)ccc1Br [Example 172]", "Unit Spec": "nM", "EC50": 19}
{"Compound": "Cc1cccc(C(F)(F)CNC(=O)[C@]2(O)C[C@H](C)CC[C@H]2C(C)C)c1 [Example 187]", "Unit Spec": "nM", "EC50": 6.2}
{"Compound": "CC(C)[C@@H]1CC[C@@H](C)C[C@@]1(O)C(=O)NCCc1cccc(CCC(=O)O)c1 [Example 87]", "Unit Spec": "nM", "EC50": 259}
